Entries and their growth inhibition values follow.
Assay: NCI Yeast Anticancer Drug Screen. Data for the rad50 strain (AID 155);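 also: 0% = growth of vehicle-only cultures of the same strain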
Conditions: S. cerevisiae rad50 strain growth inhibition; at 50.0 µM; hits give high values
Compounds without any hit were thinned out: in the full panel of roughly 79,000, 15% have a hit. Calls of active or inactive are those of the source. Rule as the data show it: active = growth inhibition above about 70%; inactive = the rest.
VALUE TYPE: growth inhibition

- NNC(=O)/C(=C/c1ccc(Cl)cc1Cl)NC(=O)c1ccccc1: 45% (inactive)
- OC(c1ccccc1)C1CC2C=CC1C2 (centres undefined): 10.4% (inactive)
- Nc1ccc(CC(=O)O)cc1S(=O)(=O)O: 25.8% (inactive)
- C[n+]1ccccc1/C=C/c1cccc([N+](=O)[O-])c1: -17.6% (inactive)
- COc1ccc(NC(=O)C(=O)C2NC(=S)NC2=O)c(OC)c1 (centres undefined): 34.4% (inactive)
- CCOC(=O)c1cnc2c(cnn2C(C)C)c1NN: -15.6% (inactive)
- O=[N+]([O-])c1ccc(-c2nc3ccc(Cl)cc3[nH]2)cc1: -16.1% (inactive)
- Cc1ccc2cccc(N)c2n1: 21.4% (inactive)
- Fc1ccc2nc3ccccc3c(SCCNCCSc3c4ccccc4nc4ccc(F)cc34)c2c1: 43.4% (inactive)
- CC(C)C1=C(Cc2ccccc2)C(=O)O/C1=C\c1ccc(O)c(Cl)c1: 2.8% (inactive)
- COc1cc2c[n+](C)c3c4ccccc4ccc3c2cc1OC: 40.4% (inactive)
- N#C/C=C(\N)C(C#N)C#N: -4.85% (inactive)
- O=C1OC(c2cccc(Cl)c2)=N/C1=C\c1ccccc1: 13.9% (inactive)
- CCc1cccc(NC(=O)c2cc(/C=C/c3ccccc3)[nH]c(=S)n2)c1: -15.9% (inactive)

====

Experiment: NCI Yeast Anticancer Drug Screen. Data for the bub3 strain (AID 167)
Conditions: S. cerevisiae bub3 mutant strain, at 50.0 µM, hits give high values
About 79,000 compounds went through this panel and 15% of them were active in at least one assay; those are over-represented in the sample as a whole.
VALUE TYPE: growth inhibition (%)

- CCOC(=O)C1CCc2ccccc2C1=O (stereo not drawn): 14.6
- Cn1nc2ccc([N+](=O)[O-])cc2[n+]1[O-]: 0.05
- O=[N+]([O-])c1cn(CCNc2c3ccccc3nc3ccccc23)cn1: -3.85

====

Assay: NCI Yeast Anticancer Drug Screen. Data for the rad50 strain (AID 155);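 also: 0% = growth of vehicle-only cultures of the same strain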
Conditions: S. cerevisiae rad50 strain growth inhibition; at 50.0 µM; hits give high values
This is part of a sample that, as a whole, favours compounds with a hit. Of some 79,000 tested, about 15% had one in any assay.
Entries and their growth inhibition values follow.
VALUE TYPE: growth inhibition (%)

• CCOC(=O)C1CC1C#N (centres undefined) = 3.4
• O=C(/C=C/c1cccc([N+](=O)[O-])c1)Nc1cccnc1 = 7.55
• CCN(CC)/C(C=[N+]=[N-])=N\C(N)=N\S(=O)(=O)c1ccc(OC)cc1 = -37.2
• Cc1nc2ccccc2n1CCC(N)=O = 24.6
• Cc1ccc(C(=O)N/N=C/c2ccc3ccccc3c2)cc1 = -1
• CCCCCCC(=O)OC[n+]1ccc2c(C)c3[nH]c4ccc(OC)cc4c3c(C)c2c1 = 87
• C=C(C)COc1ccc2c(c1)CCC1C2CCC2(C)C1CCC2(C)O (centres undefined) = 21
• COc1ccc(/C=C2\NC(=S)N(/C=C3\C(=O)Oc4ccccc4C3=O)C2=O)cc1OC = -5.85
• OB(O)c1cccc(B(O)O)c1 = -4.2

====

Experiment: NCI Yeast Anticancer Drug Screen. Data for the cln2 rad14 strain (AID 165);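 also: 0% = growth equal to vehicle treated cultures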
Conditions: S. cerevisiae cln2 rad14 strain, at 50.0 µM, hits give high values
The panel holds about 79,000 compounds, 15% with a hit somewhere; the sample as a whole holds those more often.
Entries and their growth inhibition values follow.
VALUE TYPE: growth inhibition (%)

• C[n+]1ccccc1/C=C/c1cccc([N+](=O)[O-])c1 = -28.8
• C/C(=N\N)C1C(=O)c2ccccc2C1=O = 20.8
• COc1ccc(Br)c(CN2CCc3ccccc32)c1OS(=O)(=O)c1ccc(C)cc1 = 4.1
• COC(=O)/C(C#N)=C/NC(=S)Nc1ccccc1 = 11.2
• [O-][n+]1cccc(CO)c1 = 6.05
• C(=C1\COC(c2ccccc2)=N1)/c1ccc2c(c1)OCO2 = -19.6
• Nc1nc(F)nc2c1ncn2C1OC(CO)C(O)C1O (stereo not drawn) = 0.1
• Cc1cc(C)n(-c2nnc(-n3nc(C)cc3C)c3ccccc23)n1 = -5.45
• Cc1cc2ccccc2c(Br)c1C = -36.8
• CNc1c2c(nc3ccccc13)CCCC2 = -44.4
• C=C(C)COc1c(C)c(C)c(OCC(C)C)c(C)c1C = -8.75
• CC1=C(C)C2C3C(=O)NC(=O)C3C1C1C3C(=O)NC(=O)C3C21 (stereo not drawn) = -12.8
• CN(C)c1ncnc2c1ncn2CC(O)CN (stereo not drawn) = 4.4

====

Test: NCI Yeast Anticancer Drug Screen. Data for the mec2-1 strain (AID 157)
Conditions: S. cerevisiae mec2-1 strain, at 50.0 µM, hits give high values
About 79,000 compounds went through this panel and 15% of them were active in at least one assay; those are over-represented in the sample as a whole.
VALUE TYPE: growth inhibition (%)

• O=C(c1ccccc1Cl)c1ccc2ccccc2c1C(=O)O = -0.55
• O=C(/C(=C(/[O-])C(F)(F)F)[n+]1cccc2ccccc21)C(F)(F)F = -4.65
• COc1ccc(/C=C/C(=O)C(CN(C)C)CN(C)C)cc1OC = -6.7
• O=C1c2ccccc2C(C2c3ccccc3C(=O)c3cc(Br)ccc32)c2ccc(Br)cc21 (configuration not stated) = -35.1
• NCCCNCCS = 1.5
• CSc1cc(=O)[nH]c(=O)[nH]1 = 3.1
• CCOC(=O)c1c[nH]c2c(Cl)c(C)ccc2c1=O = -48.1
• CC1(C)N=C(N)N=C(N)N1c1ccc(NC(=O)Nc2ccccc2)cc1 = -13.2
• O=C1c2cccc(O)c2C(=O)c2c(OC3OC(CO)C(OC4OC(CO)C(O)C(O)C4O)C(O)C3O)cccc21 (configuration not stated) = 36.2
• c1ccc2c(c1)Cc1c(-c3ccncc3)n[nH]c1-2 = 33
• CCN(CC)CCOC(=O)CCC(C)=O = -31.5
• CCCCOC(=O)C(C)OC(=O)COc1ccc(Cl)cc1C (configuration not stated) = -13.7
• Cc1ccc(-c2c(C#N)c(-c3ccc(Cl)cc3)c(C#N)c(=O)n2NS(=O)(=O)c2ccc(C)cc2)cc1 = 19.8
• O=C1NC(c2ccc(Cl)cc2)(c2ccc(Cl)cc2)C(=O)N1Cl = -1.6
• CC(N(C)Cc1ccccc1)C(C)(O)c1ccccc1 (configuration not stated) = 6.55
• O=C(CCN1CCCCC1)C(O)(c1ccccc1)c1ccccc1 = -2
• Nc1cc2c(cc1Cl)-c1cc(Cl)ccc1C2=O = -9.65

====

Test: NCI Yeast Anticancer Drug Screen. Data for the cln2 rad14 strain (AID 165);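 also: 0% = growth equal to vehicle treated cultures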
Conditions: S. cerevisiae cln2 rad14 strain, at 50.0 µM, hits give high values
Compounds without any hit were thinned out: in the full panel of roughly 79,000, 15% have a hit.
Entries and their growth inhibition values follow.
VALUE TYPE: growth inhibition (%)

- CCCCCCCCC(=O)c1c(OC)oc(/C=N/NC(N)=S)cc1=O: 9.55
- O=C(Nc1c(C(=O)NC2CCCCC2)[nH]c(=O)[nH]c1=O)c1ccc(Cl)cc1: 2.85
- CC(C)=CCNc1ncnc2c1ncn2CCC(=O)OC(C)(C)C: -15.9
- CC1(C)N=C(N)N=C(N)N1c1ccc(NC(=O)Nc2ccccc2)cc1: -43.2
- COc1cccc2c1oc(=O)c1ccccc12: -66.8
- COC(=O)c1ccc(C(=O)OC)c2nc3cc(Cl)ccc3nc12: -29.2
- Cc1ccc(CC(=O)C(=O)O)c([N+](=O)[O-])c1: -23.6
- CCOC(=O)C(=CN1CCCCCC1)C(=O)OCC: 6.1
- CCOC(=O)C1CC1c1c(C)c2cc3[nH]c(cc4nc(cc5nc(cc1[nH]2)C(C)=C5CCC(=O)OC)C(CCC(=O)OC)=C4C)c(C)c3C1CC1C(=O)OCC (centres undefined): -19.4

====

Entries and their growth inhibition values follow.
Assay: NCI Yeast Anticancer Drug Screen. Data for the mlh1 rad18 strain (AID 175)
Details: S. cerevisiae mlh1 rad18 strain growth inhibition; at 50.0 µM; hits give high values
This is part of a sample that, as a whole, favours compounds with a hit. Of some 79,000 tested, about 15% had one in any assay.
VALUE TYPE: growth inhibition (%)

* Cc1ccc(NC(=O)CC/C(CC(=O)C(C)(C)C)=N/NC(=O)C(N)=O)cc1C | 5.1
* COc1ccc2c(cnc3c4cc(OC)c(OC)cc4ccc23)c1 | 3.6
* O=[N+]([O-])c1ccc2[nH]c3nc4ncccc4nc3c2c1 | 0.7
* CCCCCCC(C)Cl (stereo unspecified) | 1.05
* COC(=O)C1=C(NC(=O)Nc2ccc([N+](=O)[O-])cc2)OC(C)(C)C1c1ccc(Cl)cc1 (stereo unspecified) | 29.6
* CC(C)CCOC(=O)COc1ccc(Cl)cc1Cl | -17
* O=C(C(CO)c1ccccc1)N1CCOCC1 (stereo unspecified) | 2.55
* CCOC(=O)c1cnc2ccccc2c1OCC | 0.55
* CCOCCCN | 5.25
* O=C1CC(c2ccc(Cl)cc2)NC(c2ccc(Cl)cc2)C1 (stereo unspecified) | 14.8
* NCCNCc1ccccc1 | 0.15
* CN(C)c1ccc(C=C(C(=O)O)C(=O)O)cc1 | 15.5
* O=C(O)C1C=CC2OC2C1C(=O)O (stereo unspecified) | 4.7
* Cc1cc(S(=O)(=O)O)cc(C(C)(C)C)c1O | -20.6
* Nc1nc2c(ncn2C2OCC(O)C(O)C2O)c(=O)[nH]1 (stereo unspecified) | -2.3
* Cc1ncc([N+](=O)[O-])n1CCSC(N)=O | 33.5
